target: UniProtKB P0DTD1
Type: binding, SARS-CoV-2
measurement parameters: one additive: 100 µM luteolin, 3.5 mM magnesium, 2.3 mM manganese, 0.3 mM zinc or 0.3 mM vitamin C; free enzyme 133 ± 4
Parameter calorimetric enthalpy (ΔHcal) of unfolding of 3CLpro: see the listing below.
metric: calorimetric enthalpy (ΔHcal) of unfolding of 3CLpro (kcal/mol)

compound | target | recorded number
[Cl][Mn][Cl] | UniProtKB P0DTD1 | 85.1
[Cl-].[Cl-].[Mg+2] | UniProtKB P0DTD1 | 63.1
O=c1cc(-c2ccc(O)c(O)c2)oc2cc(O)cc(O)c12 | UniProtKB P0DTD1 | 24.1
[Cl-].[Cl-].[Zn+2] | UniProtKB P0DTD1 | 108
O=C1O[C@H]([C@@H](O)CO)C(O)=C1O [Vitamin C, L-ascorbate] | UniProtKB P0DTD1 | 247.1
